Data credit: PubChem BioAssay (NCATS)

Test system: HeLa
protocol: Primary qHTS to identify gynecologic anti-cancer compounds using libraries of approved drugs and bioactive compounds (AID 1345084); also: nearly all actives have a fitted effect of over 55% in size
condition_parameters: Gynecologic cancer cell panel viability, ATPlite luminescence, 48 h; series mostly up to 57.5 µM
Records with an inconclusive call do not appear. The source made the active and inactive calls. Calls follow the shape of the dose curve; as a rule, active = well fitted cell-killing curve with a large enough effect; inconclusive = small, poorly fitted or top-dose-only effect, or effect the other way; inactive = flat fitted curve, though single readings scatter.
Returns: one label drawn from yes (active), no (inactive)

Solved entries (count: 3):
COc1ccc2c(c1O[C@H]1CCNC1)CCC2: no
Fc1ccc(-n2cc(CCCCN3CCC4(CC3)OCc3ccccc34)c3ccccc32)cc1: no
COc1cc(CN(CCN)C(=O)c2cccs2)ccc1OCc1ccccc1: no

For "CN(C)S(=O)(=O)c1ccc(NC(=S)N2CCC(C(O)(c3ccccc3)c3ccccc3)CC2)cc1" , which call appears in the assay record? no

For "CC(C)c1ccccc1OC(=O)NCCc1ccc2ccccc2c1" , which call appears in the assay record? no

For CCCCNc1ncc2c(-c3ccc(S(=O)(=O)N4CCOCC4)cc3)nn(C3CCC(O)CC3)c2n1 (stereo not given) , which call appears in the assay record? yes
